# Test summary: NCI Yeast Anticancer Drug Screen. Data for the rad50 strain (AID 155);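 note: 0% = growth of vehicle-only cultures of the same strain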
# Settings: S. cerevisiae rad50 strain growth inhibition; at 50.0 µM (retest, dose inferred, filed as 5.0); active compounds read high
The panel holds about 79,000 compounds, 15% with a hit somewhere; the sample as a whole holds those more often. Calls of active or inactive are those of the source. Cut-off read from the data, not from the text of the source: active = growth inhibition above about 70%; inactive = the rest.
Reported metric: growth inhibition

Read the entry [N-]=[N+]=Nc1c([N+](=O)[O-])c(=O)n(-c2ccccc2)c2ccccc12 and write its reported growth inhibition. 34% (inactive)

Read the entry CCOC(=O)NC(NNc1ccc([N+](=O)[O-])cc1[N+](=O)[O-])(C(F)(F)F)C(F)(F)F and write its reported growth inhibition. 99% (active)

Read the entry CCNc1cc(SC)nc(N)n1 and write its reported growth inhibition. -4% (inactive)

Read the entry Cc1ccc(S(=O)(=O)OC2C(C)OCOC(C)C2OS(=O)(=O)c2ccc(C)cc2)cc1 (stereo not given) and write its reported growth inhibition. 0% (inactive)

Read the entry Sc1c(Br)cc(Br)cc1Br.[Ag] and write its reported growth inhibition. 99% (active)

Read the entry O=C1C=C(O)c2cc(Br)ccc2C1=O.[Ag] and write its reported growth inhibition. 99% (active)

Read the entry CCCCCCCC[N+](C)(C)Cc1ccc(C[N+](C)(C)CCCCCCCC)cc1 and write its reported growth inhibition. 24% (inactive)

Read the entry C[N+](C)(CCO)Cc1ccccc1 and write its reported growth inhibition. 10% (inactive)

Read the entry Nc1cccc2c(O)cccc12 and write its reported growth inhibition. 21% (inactive)

Read the entry CCOC(=O)N1c2ccc3ccccc3c2C=CC1C#N (stereo not given) and write its reported growth inhibition. 6% (inactive)

Read the entry Cc1ccc2c(c1)-c1c(c3c(c4c1-c1cc(C)ccc1CC4)C(=O)OC3=O)CC2 and write its reported growth inhibition. 72% (active)

Read the entry CCCCCN=Cc1c(O)c(O)c(C(C)C)c2cc(C)c(-c3c(C)cc4c(C(C)C)c(O)c(O)c(C=NCCCCC)c4c3O)c(O)c12 and write its reported growth inhibition. 43% (inactive)

Read the entry CCOC(=O)c1c(Cl)nc2ccccc2c1N=[N+]=[N-] and write its reported growth inhibition. 77% (active)

Read the entry O=C(/C=C/c1ccc(Cl)c(Cl)c1)CCN1CCN(CCC(=O)/C=C/c2ccc(Cl)c(Cl)c2)CC1 and write its reported growth inhibition. 98% (active)

Read the entry CCSSC12CCCN1C(=O)C(C)N(C)C2=O (stereo not given) and write its reported growth inhibition. 79% (active)

----------
# Test summary: NCI Yeast Anticancer Drug Screen. Data for the mec2-1 strain (AID 157)
# Settings: S. cerevisiae mec2-1 strain, at 5.0 µM (retest, dose inferred, filed as 0.5), active compounds read high
Compounds without any hit were thinned out: in the full panel of roughly 79,000, 15% have a hit.
For each record, write down the corresponding growth inhibition.
Give your result in % as a bare value.

Read the entry Brc1c2nc3ccccc3nc2n2ccc3ccccc3c12 and write its reported growth inhibition. -11

Read the entry O=C1OCCCN1/N=C/c1ccc([N+](=O)[O-])o1 and write its reported growth inhibition. 4

Read the entry Cn1c(=NCCc2ccccc2)oc2ccc(Cl)cc21 and write its reported growth inhibition. -7

----------
# Test summary: NCI Yeast Anticancer Drug Screen. Data for the sgs1 mgt1 strain (AID 161);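 note: 0% = growth of cultures given vehicle only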
# Settings: S. cerevisiae sgs1 mgt1 strain, at 50.0 µM (retest, dose inferred, filed as 5.0), active compounds read high
This is part of a sample that, as a whole, favours compounds with a hit. Of some 79,000 tested, about 15% had one in any assay.
Rule: growth inhibition of 10% or more gives yes; anything lower gives no.

Does the compound O=S(=O)(c1ccccc1)n1cc(C[P+](c2ccccc2)(c2ccccc2)c2ccccc2)c2ccccc21 have recorded growth inhibition that is 10% or more? yes

Does the compound O=S(=O)(Nc1nccs1)c1ccc(N=Cc2cn(Cc3ccccc3)c3ccccc23)cc1 have recorded growth inhibition that is 10% or more? yes

Does the compound CC(C)=CCC/C(=C/CC/C(C)=C/CCc1ccoc1)C(=O)O have recorded growth inhibition that is 10% or more? yes

Does the compound CC(=O)c1cccc(NC(=O)C(=O)NNc2n[nH]c(=S)n2N)c1 have recorded growth inhibition that is 10% or more? yes

Does the compound CSc1nc(=Nc2ccccc2)sn1-c1ccccc1 have recorded growth inhibition that is 10% or more? yes

Does the compound COc1cccc2c1[n+]([O-])c1cccc(O)c1[n+]2[O-] have recorded growth inhibition that is 10% or more? yes

Does the compound O=C1/C(=C\c2ccccc2)CCC/C1=C\O have recorded growth inhibition that is 10% or more? no

Does the compound O=C(Nc1ccc(Br)cc1)c1cc(Br)c(O)c(Br)c1O have recorded growth inhibition that is 10% or more? yes

Does the compound O=S(=O)(c1cc(Cl)ccc1Cl)N1CCc2ccccc2C1 have recorded growth inhibition that is 10% or more? yes

Does the compound COC(=O)C(=C(c1ccccc1)c1ccccc1)c1ccccc1 have recorded growth inhibition that is 10% or more? no

Does the compound CC1=C(\C=C/C(C)=N/N=C(C)\C=C\C2=C(C)CCCC2(C)C)C(C)(C)CCC1 have recorded growth inhibition that is 10% or more? yes

Does the compound COc1ccc(/C=C/c2cc(OC)c(OC)c(OC)c2)cc1O[Si](C)(C)C(C)(C)C have recorded growth inhibition that is 10% or more? no

Does the compound C=C1C(=O)O[C@@H]2C[C@@]3(C)CCC[C@H](C)C3=C[C@H]12 have recorded growth inhibition that is 10% or more? yes

Does the compound CCOC(=O)c1cc2c(nc1NCc1ccc(OC)c(OC)c1)/C(=C/c1ccccc1)CCCC2 have recorded growth inhibition that is 10% or more? yes

Does the compound CCN(CC)C(=S)Nc1ccc(Cl)cc1 have recorded growth inhibition that is 10% or more? yes

Does the compound CC1CCN(SSc2nc3ccccc3s2)CC1 have recorded growth inhibition that is 10% or more? yes

Does the compound O=NNc1ccc(Sc2ccc3ccccc3c2)cn1 have recorded growth inhibition that is 10% or more? yes

Does the compound Cc1ccccc1C(O)(c1ccccc1C)C1(O)CCN(C)CC1 have recorded growth inhibition that is 10% or more? no

Does the compound CC(=O)OCCSCCOC(C)=O have recorded growth inhibition that is 10% or more? yes

Does the compound CNC1C(O)C(NC)C2OC3(O)C(=O)CC(C)OC3OC2C1O (stereo not given) have recorded growth inhibition that is 10% or more? no

Does the compound O=c1cccccc1[O-].O=c1cccccc1[O-].O=c1cccccc1[O-].[Ce+3] have recorded growth inhibition that is 10% or more? yes

Does the compound O=C1C(c2ccc([N+](=O)[O-])cc2)=C(Cl)C(=O)c2c(O)cccc21 have recorded growth inhibition that is 10% or more? no

Does the compound O=[N+]([O-])c1ccc(S(=O)(=O)C/C=C/CCl)c([N+](=O)[O-])c1 have recorded growth inhibition that is 10% or more? yes

Does the compound Cn1cccc1C(/C=C/c1ccccc1[N+](=O)[O-])c1cccn1C have recorded growth inhibition that is 10% or more? no

----------
For each record, write down the corresponding growth inhibition.
# Test summary: NCI Yeast Anticancer Drug Screen. Data for the mlh1 rad18 strain (AID 175)
# Settings: S. cerevisiae mlh1 rad18 strain growth inhibition; at 50.0 µM; active compounds read high
Compounds without any hit were thinned out: in the full panel of roughly 79,000, 15% have a hit. The source made the active and inactive calls. Cut-off read from the data, not from the text of the source: active = growth inhibition above about 70%; inactive = the rest. Where a SMILES comes first, the peptide text is derived from it. The star is where a group is joined. OSu = O=C1CCC(=O)N1O*; OBn = c1ccc(CO*)cc1; Bn = c1ccc(C*)cc1

Read the entry CC(=O)C(=C(I)I)c1ccccc1 and write its reported growth inhibition. 24.2% (inactive)

Read the entry Cc1cccc2c1Oc1cc(Cl)ccc1C2NC(=O)CCN1CCN(CCO)CC1 (stereo not given) and write its reported growth inhibition. 70.3% (active)

Read the entry CCCCc1ccc2c(c1)Nc1cc3ccccc3cc1N2 and write its reported growth inhibition. 95% (active)

Read the entry CC(C)N(CC(=O)c1ccc2cc(Cl)c3ccccc3c2c1)C(C)C and write its reported growth inhibition. 98.5% (active)

Read the entry Cc1cccc2ccc3cc(CC(=O)O)c4cccc(C)c4c3c12 and write its reported growth inhibition. 99.7% (active)

Read the entry O=c1c2cc(Br)ccc2ncn1COCc1ccccc1 and write its reported growth inhibition. 43.3% (inactive)

Read the entry Cc1c[n+](CC(=O)c2ccc(I)cc2)c(C)s1 and write its reported growth inhibition. 16.8% (inactive)

Read the entry CC(=O)SC1C(=O)N(C)C(SC(C)=O)C(=O)N1C (stereo not given) and write its reported growth inhibition. 96.5% (active)

Read the entry CC1(C)c2ccccc2Cc2cc3ccccc3nc21 and write its reported growth inhibition. 83.2% (active)

Read the entry COC(=O)c1ccc(NN)cc1 and write its reported growth inhibition. 40.9% (inactive)

Read the entry Clc1cccc(Cl)c1C(Nc1nncs1)Nc1nncs1 and write its reported growth inhibition. 97.3% (active)

Read the entry Cc1occc1C(=S)Nc1ccc(Cl)c(/C=N/OC(C)C)c1 and write its reported growth inhibition. 77.8% (active)

Read the entry Cc1cc(-c2ccccc2)c(C)c(-c2ccccc2)c1-c1ccccc1 and write its reported growth inhibition. 60.8% (inactive)

Read the entry CN(C)/N=N/c1nc(Cc2ccccc2)[nH]c1C(N)=O and write its reported growth inhibition. 98.8% (active)

Read the entry N#CCc1ccccc1-c1cccc2ccccc12 and write its reported growth inhibition. 71.5% (active)

Read the entry CC1(C)CC(=O)C2=C(C1)Nc1ccccc1CC2c1c[nH]c2ccccc12 (stereo not given) and write its reported growth inhibition. 0% (inactive)

Read the entry Cc1ccc(S)c(S)c1 and write its reported growth inhibition. 41.5% (inactive)

Read the entry O=C1C(c2ccc(Br)cc2)=[N+]([O-])c2ccccc21 and write its reported growth inhibition. 95.8% (active)

Read the entry O=C(/C=C/c1cccc([N+](=O)[O-])c1)CCl and write its reported growth inhibition. 99.3% (active)

Read the entry COC(=O)/C(C(C)=O)=C(\OC(C)=O)c1ccc(OC)c(OC)c1 and write its reported growth inhibition. 60% (inactive)

Read the entry O=C1C(=O)C(CCCO)(CCCO)CCCCCCCCC1(CCCO)CCCO and write its reported growth inhibition. -5.95% (inactive)

Read the entry CCCCc1[nH]ccc2c(C)c3nc4ccccc4c3cc12 and write its reported growth inhibition. 98.4% (active)

Read the entry NC1=NC(c2ccccc2)CC(c2cc(Cl)cc(Br)c2O)=N1 (stereo not given) and write its reported growth inhibition. 28.9% (inactive)

Read the entry C#Cc1cccc(N2C(=O)CCC2=O)c1 and write its reported growth inhibition. 91.8% (active)

Read the entry CC(C)CC(NC(=O)C(N)CCC(=O)OCc1ccccc1)C(=O)NC(COCc1ccccc1)C(=O)NC(Cc1ccccc1)C(=O)ON1C(=O)CCC1=O (stereo not given) (H-E(OBn)LS(Bn)F-OSu; configuration not given here) and write its reported growth inhibition. 79% (active)

Measured values drawn from PubChem BioAssay (NCI) for this set.
